System: A-431
protocolSummary: In vitro cytotoxicity against epidermoid carcinoma cell line
Type: functional, cell-based
assaySetup: Homo sapiens
endpointName: EC50 (µg/mL)
// units = µg/mL; emit number, no label

Use these answered entries as a reference point.
{"smilesNotation": "COC1=C(OC)[C@@]2(OC)c3c(OC)c(O)c4c(c3O[C@@]23O[C@@H](c2ccccc2)CC=C3C1=O)[C@@H](OC)C[C@H](c1ccccc1)O4", "testedTarget": "A-431", "quantitativeReadout": 0.4}
{"smilesNotation": "COC1=C(OC)[C@@]2(OC)c3c(O)c(OC)c4c(c3O[C@@]23O[C@@H](c2ccccc2)CC=C3C1=O)[C@@H](O)C[C@H](c1ccccc1)O4", "testedTarget": "A-431", "quantitativeReadout": 0.2}

Okay, now this compound:
Tell me EC50 reported for COC1=C(OC)[C@@]2(OC)c3c(O)c(OC)c4c(c3O[C@@]23O[C@@H](c2ccccc2)CC=C3C1=O)[C@@H](OC)C[C@H](c1ccccc1)O4
1
